Taken from ChEMBL document CHEMBL5233219.

# Tested on: OVCAR-3
# test.method.notes: Antiproliferative activity against human OVCAR-3 cells assessed as inhibition of cell growth
# Assay type: functional, cell-based
assay.readout: pIC50
Please treat pIC50 as minus the base-10 logarithm of the molar concentration.

Give the measured pIC50 of `O=C(Nc1cccc(-n2ccc3c(NC(=O)c4ccccc4)nccc32)c1)c1ccc(N2CCOCC2)c(C(F)(F)F)c1` . 7.35

---

# test.method.notes: Drug excretion in rat feces assessed as cumulative amount of unchanged drug excreted at 10 mg/kg, po
# Assay type: ADME, organism-based
# assay.setup: faeces, read-out: Drug excretion
assay.readout: dose excreted (%)
# unit: % | format: bare number

Fill in: dose excreted of `Cc1cn(-c2cc(NC(=O)c3ccc(C)c(Nc4nccc(-c5cccnc5)n4)c3)cc(C(F)(F)F)c2)cn1` is ___ 69

---

# test.method.notes: Half life in human
# Format: ADME
assay.readout: half-life
Just so you know, I need the unit written after the number.

half-life for `Cc1cn(-c2cc(NC(=O)c3ccc(C)c(Nc4nccc(-c5cccnc5)n4)c3)cc(C(F)(F)F)c2)cn1` ? 1020 min

---

# assay.setup: mouse, in vivo, po
# Description: Volume of distribution in mouse at 150 to 400 mg/kg, po administered twice daily
assay.readout: Vd (L/kg)
The response must be a number in L/kg with no trailing unit.

Quick check: Vd of Cc1cn(-c2cc(NC(=O)c3ccc(C)c(Nc4nccc(-c5cccnc5)n4)c3)cc(C(F)(F)F)c2)cn1 [NILOTINIB] ? 0.55

---

# test.method.notes: Oral bioavailability in mouse at 100 mg/kg administered once daily
# Type: ADME, organism-based
# assay.setup: in vivo
assay.readout: bioavailability (%)
// return numeric value only (unit: %, not printed)

Can you look up the measured bioavailability of `Cc1nc(Nc2ncc(C(=O)Nc3c(C)cccc3Cl)s2)cc(N2CCN(CCO)CC2)n1.O` for me? 14

---

# test.method.notes: Antiproliferative activity against human A375P cells
# Assay type: functional, cell-based
assay.readout: pIC50
Value format note: pIC50 is -log10 of concentration (mol/L); just state the number.

Would you kindly share the measured pIC50 for `Cc1ccc(NC(=O)Nc2ccc(Cl)nc2)cc1Nc1cc(=O)[nH]c(N)n1` ? 6.72

# get_value(readout='pIC50', item= `Cc1ccc(NC(=O)Nc2cc(F)cc(C(F)(F)F)c2)cc1Nc1cc(=O)[nH]c(N)n1` ) 6.72

---

# Test system: DU-145
# test.method.notes: Antiproliferative activity against human DU-145 cells assessed as inhibition of cell growth
# Assay type: functional, cell-based
assay.readout: IC50 (µM)
Enter your answer as a number in µM; do not include the unit.

Field request: IC50 | item: `O=C(Nc1cccc(-n2ccc3c(NC(=O)c4ccccc4)nccc32)c1)c1ccc(N2CCOCC2)c(C(F)(F)F)c1` 0.098
